tested on: HT29 colon; test: NCI-60 one-dose screen, 48 h; conditions: 10 µM unless noted
About 83,000 compounds went through this panel and 20% of them were active in at least one assay; those are over-represented in the sample as a whole. Calls of active or inactive are those of the source. How the source made its calls: active means growth percent below 10; inactive means the rest.
Answer with one of the outcomes given here: 1.0 = active, 0.0 = inactive

In: For NS(=O)(=O)c1ccc(CCn2c(SCC(=O)N/N=C/c3cccnc3)nc3ccccc3c2=O)cc1 , which call appears in the assay record?
Out: 0.0

In: Hi, sorry to bother you, what did the test record for Cc1cc([N+](=O)[O-])c(C)cc1N ?
Out: 0.0

In: For CN(C)c1ccc(/C=C\c2cccc[n+]2C)cc1 , what call appears in the results of this test?
Out: 0.0

In: What call does the record list for COc1cnc2c(c1)C(=O)c1c-2n(CCCN2CCNCC2)c(=O)c2cc(Cl)ccc12 ?
Out: 1.0

In: Could you please tell me the result logged for COC(=O)[C@H](Cc1cn(C)cn1)NC(=O)[C@H](CC(C)C)NC(=O)Nc1cc(C(F)(F)F)cc(C(F)(F)F)c1 in this assay?
Out: 1.0

In: Test call, this compound: C=C1C(=O)O[C@H]2[C@H]1CC/C(COC(=O)NCc1cccc(OC)c1)=C\CC[C@@]1(C)O[C@@H]21
Out: 1.0

In: Short answer needed: outcome of this test for COc1cc(C2CC(c3ccc(Cl)cc3)=NN2C=O)ccc1Oc1ccnc2cc(Cl)ccc12 (centres undefined) ?
Out: 0.0

In: Which result was noted for this compound in the test: O=C(Nc1ccc([N+](=O)[O-])cc1)c1cc2ccccc2cc1O
Out: 0.0

In: Kindly provide the recorded test outcome for the following compound: O=C(Nc1cccc(C2=NCCN2)c1)c1ccc(N=Nc2ccc(C(=O)Nc3cccc(C4=NCCN4)c3)cc2)cc1
Out: 0.0

* * *

test system: HT29 colon; test: NCI-60 one-dose screen, 48 h (100 = growth as untreated, 0 = no growth, -100 = all killed); conditions: 10 µM unless noted
Compounds without any hit were thinned out: in the full panel of roughly 83,000, 20% have a hit.
readoutKind: growth (%)
Only the number, expressed in %, is required.

In: Please list growth recorded for the molecule CCOC(=O)c1ccc2c(c1)nc(-c1ccc(Cl)cc1)n2-c1cc(C(C)(C)C)[nH]n1
Out: 18.5

In: Give the reported value of growth for this record: c1ccc2c(N=NSc3ncnc4nc[nH]c34)c3ccccc3nc2c1
Out: 0.967

In: Output measured growth for this item: O=C(/C=C/c1ccc(F)cc1)N1CCN(C(=O)/C=C/c2ccc(C(F)(F)F)cc2)CC1
Out: 101

In: Return growth (reported value) for this molecule: CNC1=C([N+](=O)[O-])C(c2ccccc2O)C(C#N)=C(c2cccs2)O1 (stereo not given)
Out: 105

In: Please supply the value of reported growth for the item CNCCCn1c2c(c3ccc(Cl)cc3c1=O)C(=O)c1cc(OC)cnc1-2
Out: -80.5

* * *

tested on: UO-31 renal; experiment: NCI-60 one-dose screen, 48 h (100 = growth as untreated, 0 = no growth, -100 = all killed); settings: 10 µM unless noted
Compounds without any hit were thinned out: in the full panel of roughly 83,000, 20% have a hit.
readoutKind: growth (%)
API: value field is a number in %; no unit string.

In: Give the measured growth for COc1ccc(C(=O)OC2C(OC3C(O)COC(O[C@H]4C[C@H]5[C@@H]6CC=C7C[C@@H](O)CC[C@]7(C)[C@H]6CC[C@]5(C)[C@H]4[C@H](C)C(=O)CCC(C)C)C3OC(C)=O)OCC(O)C2O)cc1 (some centres undefined)
Out: -35.7

In: Indicate the recorded growth value for this compound: NC(=O)N/N=C\c1ccc([N+](=O)[O-])o1
Out: 85.2

In: Specify measured growth for CN1CCC2(CC1)N=C(SCC(=O)Nc1cnc3ccccc3c1)C(c1ccc(Br)cc1)=N2 .
Out: -12.5

In: Name the recorded growth of the compound listed here: Cc1ccc(C(=O)CC(=O)C(F)(F)C(F)(F)C(F)(F)F)s1
Out: 74.9
